- PROCEDURE_SUMMARY: Protease stability in simulated intestinal fluids (FaSSIF) (Table 7)
- Assay type: in vitro ADME
- MEASUREMENT_SETUP: fassif with pancreatin, 240 min, 37° C., read-out: Remaining percentage of peptide compound, FaSSIF 240 (min)
Numbered stars: 1 amine (or outer) side, 2 acyl side, 3 side chain; on linkers, the order of the positions; unused ones are H or OH. Bridge positions count the residues as written; N and C are the ends. Square brackets hold non-standard residues; d marks the D form. Peptide text beside a SMILES is read from it. * marks the point of attachment. Trp(7-Me) = Cc1cccc2c(C[C@H](N)C(=O)O)c[nH]c12; Sebacoyl = O=C(CCCCCCCCC(=O)[*:2])[*:1]; 2Nal = N[C@@H](Cc1ccc2ccccc2c1)C(=O)O; 3Pal = N[C@@H](Cc1cccnc1)C(=O)O; Lys(Me) = CNCCCC[C@H](N)C(=O)O; Aun = NCCCCCCCCCCC(=O)O; Thp = NC1(C(=O)O)CCOCC1; Me2NCH2CH2 = CN(C)CC*; Aib = CC(C)(N)C(=O)O; Sar = CNCC(=O)O
MEASUREMENT_KIND: remaining at 4 h, 1 µM
Answer shape: numeric part, then the unit.

Request: // remaining at 4 h, 1 µM lookup, key: `CC(=O)NCCCC[C@@H]1NC(=O)[C@H](Cc2c[nH]c3c(C)cccc23)NC(=O)[C@@H](NC(C)=O)CCCCN(C)CCCCN(C)CCCC[C@@H](C(=O)N[C@@H](CC(N)=O)C(=O)N[C@@H](Cc2cccnc2)C(=O)N(C)CC(N)=O)NC(=O)C(C)(C)NC(=O)[C@@H](Cc2ccc3ccccc3c2)NC(=O)[C@H](Cc2ccc(OCCN(C)C)cc2)NC(=O)C2(CCOCC2)NC1=O`
Response: 88%

Request: Same read-out for CC(=O)NCCCC[C@@H]1NC(=O)[C@H](Cc2c[nH]c3c(C)cccc23)NC(=O)CCCCCCCCCCNC(=O)CC[C@@H](C(=O)N[C@@H](CC(N)=O)C(=O)N[C@@H](Cc2cccnc2)C(=O)N(C)CC(N)=O)NC(=O)C2(CCOCC2)NC(=O)[C@H](Cc2ccc3ccccc3c2)NC(=O)[C@H](Cc2ccc(OCCN(C)C)cc2)NC(=O)C2(CCOCC2)NC1=O [compound 50] ([Aun][Trp(7-Me)]K(Ac)[Thp]Y(Me2NCH2CH2)[2Nal][Thp]EN[3Pal][Sar]-NH2; lactam N-8) ?
Response: 91%

Request: Same read-out for Cc1cccc2c(C[C@@H]3NC(=O)CCCCCCCCC(=O)N(C)CCCC[C@@H](C(=O)N[C@@H](CC(N)=O)C(=O)N[C@@H](Cc4cccnc4)C(=O)N(C)CC(N)=O)NC(=O)C(C)(C)NC(=O)[C@H](Cc4ccc5ccccc5c4)NC(=O)[C@H](Cc4ccc(OCCN(C)C)cc4)NC(=O)C4(CCOCC4)NC(=O)[C@H](CCC(N)=O)NC3=O)c[nH]c12 [compound 19] ([Trp(7-Me)]Q[Thp]Y(Me2NCH2CH2)[2Nal][Aib][Lys(Me)]N[3Pal][Sar]-NH2; linker N-7 via Sebacoyl) ?
Response: 74%

Request: Same read-out for Cc1cccc2c(C[C@@H]3NC(=O)CCCCCCCCC(=O)NCCCC[C@@H](C(=O)N[C@@H](CC(N)=O)C(=O)N[C@@H](Cc4cccnc4)C(=O)N(C)CC(N)=O)NC(=O)C(C)(C)NC(=O)[C@H](Cc4ccc5ccccc5c4)NC(=O)[C@H](Cc4ccc(OCCN(C)C)cc4)NC(=O)C4(CCOCC4)NC(=O)[C@H](CCC(N)=O)NC3=O)c[nH]c12 [compound 11] ([Trp(7-Me)]Q[Thp]Y(Me2NCH2CH2)[2Nal][Aib]KN[3Pal][Sar]-NH2; linker N-7 via Sebacoyl) ?
Response: 69%

====

- PROCEDURE_SUMMARY: Protease stability in simulated intestinal fluids (FaSSIF) (Table 7)
- Assay type: in vitro ADME
- MEASUREMENT_SETUP: fassif with pancreatin, 120 min, 37° C., read-out: Remaining percentage of peptide compound, FaSSIF 120 (min)
- Method: Studies were carried out in simulated intestinal fluid (SIF) and simulated gastric fluid (SGF) to evaluate gastric stability of the peptide compounds disclosed herein. […] To 76 μL of the Pepsin-SGF buffer, 4 μL of the 20 μM peptide stock solution was added and incubated at 37° C. […] The samples were centrifuged for 20 minutes and an aliquot of the supernatant 100 μL were transferred to a LoBind-MTP plate and analyzed by LCMS/MS. […]
Numbered stars: 1 amine (or outer) side, 2 acyl side, 3 side chain; on linkers, the order of the positions; unused ones are H or OH. Bridge positions count the residues as written; N and C are the ends. Square brackets hold non-standard residues; d marks the D form. Peptide text beside a SMILES is read from it. * marks the point of attachment. Lys(Me,(CH2)4NMe(CH2)4CO) = CN(CCCCC(=O)[*:3])CCCCN(C)CCCC[C@H](N[*:1])C(=O)[*:2]; Trp(7-Me) = Cc1cccc2c(C[C@H](N)C(=O)O)c[nH]c12; αMeLys(Me2) = CN(C)CCCC[C@](C)(N)C(=O)O; 2Nal = N[C@@H](Cc1ccc2ccccc2c1)C(=O)O; 3Pal = N[C@@H](Cc1cccnc1)C(=O)O; Aun = NCCCCCCCCCCC(=O)O; Thp = NC1(C(=O)O)CCOCC1; Me2NCH2CH2 = CN(C)CC*; Aib = CC(C)(N)C(=O)O; Sar = CNCC(=O)O
MEASUREMENT_KIND: remaining at 2 h, 1 µM
Answer shape: numeric part, then the unit.

Request: // remaining at 2 h, 1 µM lookup, key: CC(=O)NCCCC[C@@H]1NC(=O)[C@H](Cc2c[nH]c3c(C)cccc23)NC(=O)CCCCCCCCCCNC(=O)CC[C@@H](C(=O)N[C@@H](CC(N)=O)C(=O)N[C@@H](Cc2cccnc2)C(=O)N(C)CC(N)=O)NC(=O)[C@](C)(CCCCN(C)C)NC(=O)[C@H](Cc2ccc3ccccc3c2)NC(=O)[C@H](Cc2ccc(OCCN(C)C)cc2)NC(=O)C2(CCOCC2)NC1=O [compound 21] ([Aun][Trp(7-Me)]K(Ac)[Thp]Y(Me2NCH2CH2)[2Nal][αMeLys(Me2)]EN[3Pal][Sar]-NH2; lactam N-8)
Response: 100%

Request: Same read-out for CN(C)CCOc1ccc(C[C@@H]2NC(=O)C3(CCOCC3)NC(=O)[C@H](CCC(N)=O)NC(=O)[C@H](Cc3c[nH]c4ccccc34)NC(=O)CCCCN(C)CCCCN(C)CCCC[C@@H](C(=O)N[C@@H](CO)C(=O)N[C@@H](Cc3cccnc3)C(=O)N(C)CC(N)=O)NC(=O)C(C)(C)NC(=O)[C@H](Cc3ccc4ccccc4c3)NC2=O)cc1 [compound 41] (WQ[Thp]Y(Me2NCH2CH2)[2Nal][Aib][Lys(Me,(CH2)4NMe(CH2)4CO)]S[3Pal][Sar]-NH2; lactam N-7) ?
Response: 93%

====

Could you please report measured degraded at 24 h for the items listed next?
- PROCEDURE_SUMMARY: Chemical stability (relative purity loss) of peptide compounds in buffer formulations (Table 6)
- Type: physicochemical
- MEASUREMENT_SETUP: 50 mm hcl + acetonitrile, Buffer pH 1.1 (head; method: 50 mM HCl pH 1.2 + acetonitrile 3:1), 2° C. and 37° C., read-out: Chemical stability (relative purity loss), Buffer pH 1.1
Numbered stars: 1 amine (or outer) side, 2 acyl side, 3 side chain; on linkers, the order of the positions; unused ones are H or OH. Bridge positions count the residues as written; N and C are the ends. Square brackets hold non-standard residues; d marks the D form. Peptide text beside a SMILES is read from it. * marks the point of attachment. Lys(Me,(CH2)4NMe(CH2)4CO) = CN(CCCCC(=O)[*:3])CCCCN(C)CCCC[C@H](N[*:1])C(=O)[*:2]; Trp(7-Me) = Cc1cccc2c(C[C@H](N)C(=O)O)c[nH]c12; Trp(1-Me) = Cn1cc(C[C@H](N)C(=O)O)c2ccccc21; 2Nal = N[C@@H](Cc1ccc2ccccc2c1)C(=O)O; d2Nal = N[C@H](Cc1ccc2ccccc2c1)C(=O)O; 3Pal = N[C@@H](Cc1cccnc1)C(=O)O; Aun = NCCCCCCCCCCC(=O)O; Thp = NC1(C(=O)O)CCOCC1; Me2NCH2CH2 = CN(C)CC*; Aib = CC(C)(N)C(=O)O; Sar = CNCC(=O)O
Respond numerically; units are % and should not be typed.

Request: // degraded at 24 h lookup, key: CN(C)CCOc1ccc(C[C@@H]2NC(=O)C3(CCOCC3)NC(=O)[C@H](CCC(N)=O)NC(=O)[C@H](Cc3cn(C)c4ccccc34)NC(=O)CCCCN(C)CCCCN(C)CCCC[C@@H](C(=O)N[C@@H](CO)C(=O)N[C@@H](Cc3cccnc3)C(=O)N(C)CC(N)=O)NC(=O)C(C)(C)NC(=O)[C@H](Cc3ccc4ccccc4c3)NC2=O)cc1 [compound 40] ([Trp(1-Me)]Q[Thp]Y(Me2NCH2CH2)[2Nal][Aib][Lys(Me,(CH2)4NMe(CH2)4CO)]S[3Pal][Sar]-NH2; lactam N-7)
Response: 5.7

Request: Same read-out for Cc1cccc2c(C[C@@H]3NC(=O)CCCCCCCCCCNC(=O)CC[C@@H](C(=O)N[C@@H](CC(N)=O)C(=O)N[C@@H](Cc4cccnc4)C(=O)N(C)CC(N)=O)NC(=O)C(C)(C)NC(=O)[C@@H](Cc4ccc5ccccc5c4)NC(=O)[C@H](Cc4ccc(OCCN(C)C)cc4)NC(=O)C4(CCOCC4)NC(=O)[C@H](CCC(N)=O)NC3=O)c[nH]c12 [compound 4] ([Aun][Trp(7-Me)]Q[Thp]Y(Me2NCH2CH2)[d2Nal][Aib]EN[3Pal][Sar]-NH2; lactam N-8) ?
Response: 6.3

Request: Same read-out for `CC(=O)NCCCC[C@@H]1NC(=O)[C@H](Cc2c[nH]c3c(C)cccc23)NC(=O)[C@@H](NC(C)=O)CCCCN(C)CCCCN(C)CCCC[C@@H](C(=O)N[C@@H](CC(N)=O)C(=O)N[C@@H](Cc2cccnc2)C(=O)N(C)CC(N)=O)NC(=O)C(C)(C)NC(=O)[C@@H](Cc2ccc3ccccc3c2)NC(=O)[C@H](Cc2ccc(OCCN(C)C)cc2)NC(=O)C2(CCOCC2)NC1=O` ?
Response: 3.1

Request: Same read-out for Cc1cccc2c(C[C@@H]3NC(=O)CCCCN(C)CCCCN(C)CCCC[C@@H](C(=O)N[C@@H](CC(N)=O)C(=O)N[C@@H](Cc4cccnc4)C(=O)N(C)CC(N)=O)NC(=O)C(C)(C)NC(=O)[C@H](Cc4ccc5ccccc5c4)NC(=O)[C@H](Cc4ccc(OCCN(C)C)cc4)NC(=O)C4(CCOCC4)NC(=O)[C@H](CCC(N)=O)NC3=O)c[nH]c12 [compound 46] ([Trp(7-Me)]Q[Thp]Y(Me2NCH2CH2)[2Nal][Aib][Lys(Me,(CH2)4NMe(CH2)4CO)]N[3Pal][Sar]-NH2; lactam N-7) ?
Response: 6

Request: Same read-out for CC(=O)NCCCC[C@@H]1NC(=O)[C@H](Cc2c[nH]c3c(C)cccc23)NC(=O)CCCCN(C)CCCCN(C)CCCC[C@@H](C(=O)N[C@@H](CO)C(=O)N[C@@H](Cc2cccnc2)C(=O)N(C)CC(N)=O)NC(=O)C(C)(C)NC(=O)[C@H](Cc2ccc3ccccc3c2)NC(=O)[C@H](Cc2ccc(OCCN(C)C)cc2)NC(=O)C2(CCOCC2)NC1=O [compound 39] ([Trp(7-Me)]K(Ac)[Thp]Y(Me2NCH2CH2)[2Nal][Aib][Lys(Me,(CH2)4NMe(CH2)4CO)]S[3Pal][Sar]-NH2; lactam N-7) ?
Response: 3.7

Attribution: patent US20260297129A1
